Reported TGI values for the following compounds.
Tested on: CCRF-CEM leukemia
Assay: NCI tumour cell line growth inhibition, 48 h
Dear colleague, please return just the value in µM, with no unit written.

For orientation, consider the following solved cases.
CC1C2(C)OC(=N)C(C#N)(C(C)O2)C1(C#N)C#N (centres undefined); 51.3
O=C1/C(=C/c2ccc(Cl)cc2)N=C(c2ccccc2)N1c1nc2c(Cl)cc(Cl)cc2s1; 20.7
CC(=O)OC1CC2C(C)(C)C(=O)C=C[C@]2(C)C2CCC3(C)C(c4ccoc4)[C@@H](O)[C@H]4O[C@]43[C@]12C (some centres undefined); 54

Below: the item to evaluate.
Ask: What measured TGI is associated with Cc1sc(NC2=NC(=O)/C(=C\c3ccccc3)S2)nc1-c1nc(NC2=NC(=O)/C(=C\c3ccccc3)S2)sc1C on CCRF-CEM leukemia?
Reply: 35.6
